- STUDY SYSTEM: UniProt P10828
- Sequence (P10828 whole entry): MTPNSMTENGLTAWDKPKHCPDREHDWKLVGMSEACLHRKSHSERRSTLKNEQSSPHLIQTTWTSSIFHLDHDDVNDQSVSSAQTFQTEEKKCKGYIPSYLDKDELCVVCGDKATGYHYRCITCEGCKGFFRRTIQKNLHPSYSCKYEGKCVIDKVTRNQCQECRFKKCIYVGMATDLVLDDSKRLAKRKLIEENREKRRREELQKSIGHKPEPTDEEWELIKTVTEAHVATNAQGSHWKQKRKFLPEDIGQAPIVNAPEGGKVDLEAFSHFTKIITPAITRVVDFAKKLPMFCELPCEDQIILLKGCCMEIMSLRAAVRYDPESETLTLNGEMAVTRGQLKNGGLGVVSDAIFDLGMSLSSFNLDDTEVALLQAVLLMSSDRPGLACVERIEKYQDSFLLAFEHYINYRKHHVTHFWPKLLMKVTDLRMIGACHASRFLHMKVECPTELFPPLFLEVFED
- ASSAY INFO: In vitro TR-β activity (in-house protocol)
- Format: cell-based
- CONDITION: Conc. 1000 nM; read-out: TR-β Fold Induction w.r.t T3(100 nm)
MEASURED METRIC: fold induction at 1 µM
// response body must contain only the number

fold induction at 1 µM of O=C(O)CN(CC(=O)O)c1cc(Cl)c(Oc2ccc(O)c(C(=O)c3ccc(Cl)cc3)c2)c(Cl)c1 [Example 28] , assay on UniProt P10828, is 46.1

Tested on UniProt P10828: O=C(O)CN(C(=O)Oc1ccc(O)cc1)c1cc(Cl)c(Oc2ccc(O)c(S(=O)(=O)N3CCCCCC3)c2)c(Cl)c1 [Example 57] . Observed fold induction at 1 µM: 62.5

Param item: CCOC(=O)N(CC(=O)O)c1cc(Cl)c(Oc2ccc(O)c(C(=O)c3ccc(Cl)s3)c2)c(Cl)c1 [Example 17] ; param system: UniProt P10828; output fold induction at 1 µM: 77.9

Observed fold induction at 1 µM on UniProt P10828, entry CCOC(=O)N(CC(=O)O)c1cc(Cl)c(Oc2ccc(O)c(-c3ccccc3)c2)c(Cl)c1 [Example 14] , equals 77.3

The value of fold induction at 1 µM recorded for CC(C)(C)c1cc(Oc2c(Cl)cc(N(CC(=O)O)C(=O)Oc3ccc(O)cc3)cc2Cl)ccc1O [Example 35] when tested on UniProt P10828 reads 81.3

Hey, UniProt P10828 data for CC(C)c1cc(Oc2c(Cl)cc(N(CC(=O)O)C(=O)Oc3ccc(O)cc3)cc2Cl)ccc1O [Example 32] : fold induction at 1 µM came out at 94.9

Entry O=C(O)CN(C(=O)Oc1ccc(O)cc1)c1cc(Cl)c(Oc2ccc(O)c(S(=O)(=O)N3CCCCC3)c2)c(Cl)c1 [Example 41] , tested on UniProt P10828, has a reported fold induction at 1 µM of 67

* * *

- STUDY SYSTEM: TR-α (Homo sapiens)
- ASSAY INFO: In vitro TR-α activity (in-house protocol)
- Assay type: cell-based
- CONDITION: Conc. 1 nM
MEASURED METRIC: TR-α Fold Induction w.r.t T3(100 nm)
Lab note: jot down the number only; don't add units.

Sure, the documented TR-α Fold Induction w.r.t T3(100 nm) for O=C(O)CN(C(=O)Oc1ccc(O)cc1)c1cc(Cl)c(Oc2ccc(O)c(S(=O)(=O)N3CCCCC3)c2)c(Cl)c1 [Example 41] is 20.78

Entry under test: CC(C)NS(=O)(=O)c1cc(Oc2c(Cl)cc(N(CC(=O)O)C(=O)Oc3ccc(O)cc3)cc2Cl)ccc1O [Example 45] . Its TR-α Fold Induction w.r.t T3(100 nm) was 10.48

compound O=C(O)CN(C(=O)Oc1ccc(O)cc1)c1cc(Cl)c(Oc2ccc(O)c(S(=O)(=O)N3CCOCC3)c2)c(Cl)c1 [Example 61] , TR-α Fold Induction w.r.t T3(100 nm) observed: 11.55

Entry CCOC(=O)N(CC(=O)O)c1cc(Cl)c(Oc2ccc(O)c(C(=O)c3cccc(Cl)c3)c2)c(Cl)c1 [Example 25] ; TR-α Fold Induction w.r.t T3(100 nm) = 4.22

Form: compound = O=C(O)CN(C(=O)Oc1ccc(O)cc1)c1cc(Cl)c(Oc2ccc(O)c(S(=O)(=O)NC3CCC3)c2)c(Cl)c1 [Example 51] ; TR-α Fold Induction w.r.t T3(100 nm) = 08.05

Entry CCOC(=O)N(CC(=O)O)c1cc(Cl)c(Oc2ccc(O)c(C(=O)c3ccc(C(C)(C)C)cc3)c2)c(Cl)c1 [Example 24] — recorded TR-α Fold Induction w.r.t T3(100 nm) = 10.00

Briefly, TR-α Fold Induction w.r.t T3(100 nm) measured for CCOC(=O)N(CC(=O)O)c1cc(Cl)c(Oc2ccc(O)c(C(=O)c3ccc(Cl)cc3)c2)c(Cl)c1 [Example 20] : 10.42
